Reference source for all entries: patent US20260193228A1

# assayed_target: NLRP3 (Homo sapiens)
# Sequence (Q96P20 whole entry): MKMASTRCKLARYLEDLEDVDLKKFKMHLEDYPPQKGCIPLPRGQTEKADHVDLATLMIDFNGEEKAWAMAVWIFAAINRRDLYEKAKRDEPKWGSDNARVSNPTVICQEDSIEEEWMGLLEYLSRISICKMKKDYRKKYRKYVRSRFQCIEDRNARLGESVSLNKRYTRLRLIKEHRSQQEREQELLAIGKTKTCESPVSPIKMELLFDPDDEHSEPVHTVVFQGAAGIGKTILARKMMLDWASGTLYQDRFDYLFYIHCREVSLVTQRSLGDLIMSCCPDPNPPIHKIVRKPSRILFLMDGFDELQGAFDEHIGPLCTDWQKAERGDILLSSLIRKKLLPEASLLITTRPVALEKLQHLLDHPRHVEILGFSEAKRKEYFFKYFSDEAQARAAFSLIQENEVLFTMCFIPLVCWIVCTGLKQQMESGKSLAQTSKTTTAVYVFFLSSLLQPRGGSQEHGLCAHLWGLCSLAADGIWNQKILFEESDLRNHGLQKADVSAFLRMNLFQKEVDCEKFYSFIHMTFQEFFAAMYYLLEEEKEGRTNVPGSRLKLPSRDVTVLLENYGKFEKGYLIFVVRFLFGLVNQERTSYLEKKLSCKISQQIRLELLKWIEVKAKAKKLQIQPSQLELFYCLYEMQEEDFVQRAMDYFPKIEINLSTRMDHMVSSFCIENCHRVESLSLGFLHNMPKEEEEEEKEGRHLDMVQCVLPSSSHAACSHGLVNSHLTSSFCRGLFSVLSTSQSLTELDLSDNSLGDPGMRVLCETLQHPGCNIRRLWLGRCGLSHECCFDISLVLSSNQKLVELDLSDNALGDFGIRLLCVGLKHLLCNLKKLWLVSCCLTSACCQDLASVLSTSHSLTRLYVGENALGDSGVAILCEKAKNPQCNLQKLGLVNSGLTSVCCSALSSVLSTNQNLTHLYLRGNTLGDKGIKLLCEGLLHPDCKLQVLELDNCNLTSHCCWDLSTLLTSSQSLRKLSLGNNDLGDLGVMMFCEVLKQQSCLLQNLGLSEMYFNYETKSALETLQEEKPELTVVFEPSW
# assay_summary: Human whole blood IL-1β release assay
# Type: cell-based
# cond: 1 μg/ml LPS, nigericin 10 μM, IL-1β AlphaLisa
reported_metric: pIC50
Numbers only, as −log10 of the molar value.

Some molecules with recorded pIC50:
CCN1CCC[C@@H](Nc2nnc(-c3c(C)cc(C(F)(F)F)cc3O)c(=O)n2C)C1; 7.28
CCN1CCC[C@@H](Nc2nnc(-c3c(C)cc(Cl)cc3O)c(=O)n2C)C1; 7.39
CCN1CCC[C@@H](Nc2nnc(-c3c(C)cc4c(c3O)CCO4)c(=O)n2C)C1; 7.48

# context switch: different molecule, same pIC50
QUERY: Quick check: pIC50 of CCN1CCC[C@@H](Nc2nnc(-c3c(C)cc4c(c3O)CCC4)c(=O)n2C)C1 ?
RESULT: 7.39
